The measurements presented in this section are drawn from PubChem BioAssay.

system: Sonic hedgehog protein (Shh); assay: small-molecule binders of Shh protein, primary screen, biochemical, small-molecule microarray, 635/667 nm fluorescence (AID 1151); conditions: small-molecule microarray binding, 635 nm fluorescence; higher = more signal;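 note: Shh protein binding to compounds spotted on small-molecule microarray slides; score combines spot fluorescence intensity with signal-to-noise across triplicate slides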
reported.metric: composite z-score
Lab note: jot down the number only; don't add units.

Enquiry: Identify the measured composite z-score of COC(=O)CC=C[C@@H](C)[C@@H](C=NOC(C)CN1CCCc2nc(C)c(C)cc21)OC (stereo partly drawn) for Sonic hedgehog protein (Shh).
Return: 0.655

Enquiry: Value wanted: composite z-score (Sonic hedgehog protein (Shh)) of entry COC(=O)[C@H](C)NC(=O)CCC1CC(OC(=O)NCc2ccc3c(c2)OCO3)CC2(CCCC(COC(=O)NCc3cccc(C(F)(F)F)c3)O2)O1 (stereo partly drawn)
Return: 1.28

Enquiry: Recorded composite z-score for `CCOC(=O)NN=C1C[C@@H](O)[C@@H](O)[C@@H]2[C@@H]3C(=O)N([C@@H](C)c4ccccc4)C(=O)[C@@H]3CC[C@@H]12` with Sonic hedgehog protein (Shh), please?
Return: 1.37

Enquiry: Lab request: please report composite z-score under test system Sonic hedgehog protein (Shh) for `CC(CCN1CCCCc2nc(C)c(C)cc21)=NOC[C@@H](O)COCc1ccco1`
Return: 2.31

Enquiry: So what composite z-score did `COC(=O)CC=C[C@@H](C)[C@@H](C=NO[C@@H]1O[C@H](COC(C)=O)[C@@H](OC(C)=O)[C@H](OC(C)=O)[C@H]1OC(C)=O)OC` get with Sonic hedgehog protein (Shh)?
Return: 0.0568

New cases:
Enquiry: For the record `CON=C1[C@H]2CCn3c(=O)n(-c4ccccc4)c(=O)n3[C@H]2[C@H](O)[C@@H]2O[C@H]12` , what value of composite z-score is listed for Sonic hedgehog protein (Shh)?
Return: 0.435

Enquiry: Requested read-out composite z-score, target or system Sonic hedgehog protein (Shh), entry `O=C(C=Cc1ccc2c(c1)OCO2)c1ccc(F)cc1`
Return: 2.05

Enquiry: Value wanted: composite z-score (Sonic hedgehog protein (Shh)) of entry `CC(C)=CCCC(C)=CCON=C1C[C@@H](O)[C@@H](O)[C@@H]2[C@@H]3C(=O)N(c4ccc(F)cc4F)C(=O)[C@@H]3CC[C@@H]12`
Return: 1.97

----------
# reported z-score; entries follow
experiment: modulators of S6 phosphorylation in cells, primary screen, cell-based, A549, cytoblot, luminescence, serum-stimulated (AID 1158); conditions: A549 phospho-S6 cytoblot, 5 h, higher = more signal;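 note: serum-stimulated A549 lung adenocarcinoma cells; signal is phosphorylated S6 detected by cytoblot immunostaining with HRP secondary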

Enquiry: Sample CCOC(=O)[C@H](Cc1ccccc1)NC(=O)CCC1CC(OC(=O)NCCc2ccc(F)cc2)CC2(CCCC(COC(=O)NCC3CCCCC3)O2)O1 (some centres not stated) — what was its z-score?
Return: 0.681

Enquiry: Which z-score reading was recorded for the molecule `COc1ccc(O[C@H]2C=C[C@@H](c3ccccc3)O[C@@H]2CON=C(C)CCC(=O)OC[C@H]2O[C@H](c3ccccc3)C=C[C@@H]2Oc2ccc(OC)cc2)cc1` ?
Return: -0.661

Enquiry: What z-score value was documented for this molecule, `O=C1C[C@@H](O)[C@@H](O)[C@@H]2[C@@H]3C(=O)N(c4cccc(Oc5ccccc5)c4)C(=O)[C@@H]3CC[C@H]12` ?
Return: -0.875

***
Enquiry: Looking for the measured z-score of `CCc1cc2c(nc1CC)CCN(CCC(C)=NOC[C@H]1O[C@H](c3ccccc3)C=C[C@@H]1Oc1ccc(OC)cc1)C2` , can you help?
Return: 1.18

Enquiry: Field request: z-score | item: `CC(C)=CCCC(C)=CCON=C1C[C@@H](O)[C@@H](O)[C@@H]2[C@@H]3C(=O)N(c4cccc(Oc5ccccc5)c4)C(=O)[C@@H]3CC[C@@H]12`
Return: 0.313

Enquiry: May I ask what z-score has been recorded for `CO[C@@H]1COC(=O)CC=C[C@H](C)[C@H](OC)COC(=O)[C@H](C)NC(=O)CC=C[C@H]1C` ?
Return: -0.0908

Enquiry: # query: z-score of entry CCOC(=O)[C@H](CC(C)C)NC(=O)CCC1CC(OC(=O)NCc2ccc3c(c2)OCO3)CC2(CCCC(COC(=O)NCC3CCCCC3)O2)O1 (some centres not stated)
Return: 0.542

----------
Catalogue of compounds with associated z-score
assay: mitochondrial membrane potential change in A549 cells, profiling panel, cell-based, JC-1 fluorescence, basal, 24 h, 100 nL (AID 1138); conditions: higher = more signal;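 note: A549 lung adenocarcinoma cells under basal conditions with no added stimulus; test concentration not given here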
Form rule: numeric answer, no unit written next to it.

Solved cases below.
Enquiry: Record request: z-score value, item `CCOC(=O)NN=C1C[C@@H](O)[C@@H](O)[C@@H]2[C@@H]3C(=O)N(c4cccc(Oc5ccccc5)c4)C(=O)[C@@H]3CC[C@H]12`
Return: 0.471

Enquiry: Which z-score is listed for `CCOC(=O)NN=C1C[C@@H](O)[C@@H](O)[C@@H]2[C@@H]3C(=O)N([C@@H](C)c4ccccc4)C(=O)[C@@H]3CC[C@@H]12` ?
Return: -0.337

Further cases:
Enquiry: State the recorded z-score for this entry: `O=C1[C@H]2[C@H]3[C@H](O)[C@H](O)CC(=NOC[C@@H](O)COCc4ccco4)[C@H]3CC[C@H]2C(=O)N1C[C@@H]1CCCO1`
Return: -0.644

----------
experiment: PSAC antagonists in infected red cells, primary screen, cell-based, P. falciparum Indochina, OD700, 18 h (AID 1157); settings: P. falciparum Indochina infected erythrocytes, osmotic lysis OD700, 18 h; higher = more signal, called active from +8 up or from −8 down
reported.metric: z-score
// print number alone

Example cases with answers are listed next.
Enquiry: Param item = `C=Cc1ccc([C@H]2N[C@H](C(=O)O)CC[C@@H]2C)cc1` ; retrieve measured z-score.
Return: -0.267

Enquiry: Quick one: z-score for `Cn1c(=O)n2n(c1=O)[C@H]1[C@H](O)[C@@H]3O[C@@H]3C(=O)[C@H]1CC2` ?
Return: 0.18

Enquiry: What does the data say about its z-score? Entry: `COc1cccc([C@H]2Oc3ccc(OC)cc3C(=NO[C@H](C)c3cn([C@H](CO)Cc4ccccc4)nn3)[C@@H]2O)c1`
Return: 0.22

Enquiry: Recorded z-score for CCOC(=O)[C@H](CC(C)C)NC(=O)CCC1CC(OC(=O)NCc2ccc3c(c2)OCO3)CC2(CCCC(COC(=O)NCC(c3ccccc3)c3ccccc3)O2)O1 (stereo partly drawn) , please?
Return: -0.071

Enquiry: Value lookup for z-score; key = `O=C(NN=C1C[C@@H](O)[C@@H](O)[C@@H]2[C@@H]3C(=O)N(C[C@@H]4CCCO4)C(=O)[C@@H]3CC[C@H]12)OCc1ccccc1`
Return: 0.404

Enquiry: Which value of z-score has been reported for CCOC(=O)[C@H](CC(C)C)NC(=O)CCC1CC(OC(=O)NCc2ccc3c(c2)OCO3)CC2(CCCC(COC(=O)NCCCN3CCCC3=O)O2)O1 (stereo partly drawn) in the records?
Return: 0.003

Enquiry: GET /values?readout=z-score&item= `CON=C[C@@H](C)[C@H](OCc1ccccc1)C(C)C`
Return: -1.37

Others:
Enquiry: Sample COC(=O)[C@H](C)NC(=O)CCC1CC(OC(=O)NCCc2ccc(F)cc2)CC2(CCCC(COC(=O)NCc3cccc(C(F)(F)F)c3)O2)O1 (stereo partly drawn) — what was its z-score?
Return: 0.125

----------
molecular target: Albumin (Bos taurus) (UniProt P02769); experiment: bovine serum albumin binders on microarray, profiling panel, artefact control for SMM control protein annotation, biochemical, small-molecule microarray, Alexa647 label, 635/667 nm fluorescence (AID 1118); conditions: BSA-A647 binding, fluorescence 635 nm, higher = more signal;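 note: score merges 667 nm emission intensity and signal-to-noise per printed compound spot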
Sequence (P02769 whole entry, looked up): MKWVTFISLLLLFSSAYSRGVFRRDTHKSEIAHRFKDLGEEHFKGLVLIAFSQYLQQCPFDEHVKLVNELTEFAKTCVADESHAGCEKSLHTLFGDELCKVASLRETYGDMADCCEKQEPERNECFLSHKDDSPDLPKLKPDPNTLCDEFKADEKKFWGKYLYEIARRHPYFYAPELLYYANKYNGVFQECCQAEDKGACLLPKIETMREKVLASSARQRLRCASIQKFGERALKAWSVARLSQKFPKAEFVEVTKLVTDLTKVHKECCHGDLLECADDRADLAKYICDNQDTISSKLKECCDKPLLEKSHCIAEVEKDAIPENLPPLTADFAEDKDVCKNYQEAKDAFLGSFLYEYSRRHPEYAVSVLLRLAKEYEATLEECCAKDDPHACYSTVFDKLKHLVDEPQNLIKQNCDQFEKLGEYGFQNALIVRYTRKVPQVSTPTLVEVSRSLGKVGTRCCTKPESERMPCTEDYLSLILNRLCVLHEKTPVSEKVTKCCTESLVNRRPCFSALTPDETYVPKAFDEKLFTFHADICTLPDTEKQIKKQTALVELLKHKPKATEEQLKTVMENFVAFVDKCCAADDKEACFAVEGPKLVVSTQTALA
Classify as follows. Reported composite z-score greater than or equal to 0.2: condition met. Reported composite z-score below: condition not met.

Some solved entries appear below for comparison.
Enquiry: Quick check, composite z-score >= 0.2? `C=Cc1ccc([C@H]2N[C@H](C(=O)O)CC[C@@H]2C)cc1`
Return: condition not met

Enquiry: Hi, just wondering whether `O=c1n(Cc2cc3c(cc2Cl)OCO3)c(=O)n2n1CC[C@@H]1C(=NOC[C@@H](O)COCc3ccco3)[C@H]3O[C@H]3[C@@H](O)[C@@H]12` shows composite z-score of 0.2 or higher.
Return: condition not met

Enquiry: Exam item: decide whether the reported composite z-score for `CSCC[C@@H]1NC(=O)CC=C[C@@H](C)COC(=O)[C@@H](C)COC1=O` is at least 0.2.
Return: condition not met

Enquiry: Quick check, composite z-score >= 0.2? `CC(CCN1CCCCc2nc(C)c(C)cc21)=NOC[C@@H](C)[C@H](OCc1ccccc1)C(C)C`
Return: condition not met

Enquiry: composite z-score >= 0.2 for `CCN1C(=O)[C@H]2[C@H]3[C@H](O)[C@H](O)CC(=NNC(=O)OCc4ccc(OC)cc4)[C@@H]3CC[C@H]2C1=O` ?
Return: condition not met

Next compound, please.
Enquiry: State whether the measured composite z-score reaches 0.2, counting equality as reaching it, for `CCOC(=O)CCN1C(=O)[C@H]2[C@H]3[C@H](O)[C@H](O)CC(=NOCc4ccccc4)[C@H]3CC[C@H]2C1=O`
Return: condition not met
